What normalised response was measured for each of the following?
Tested on: CAL-120
Assay: normalised response (% of control), CellTox Green; higher = less cell death (100 = DMSO, 0 = benzethonium chloride kill control)
Conditions: incubation time: 72 h
Please state the figure in %; there is no need to write the unit.

Exam item: What value of normalised response has been reported for the following molecule? COCC[n+]1c2c(n(Cc3cnccn3)c1C)C(=O)c1ccccc1C2=O [YM155] (10000 nM)
Marked response: -11.6

Exam item: Try S=P(N1CC1)(N1CC1)N1CC1 [Thio-TEPA] (5000 nM) next.
Marked response: 100

Exam item: Next molecule: COc1cc2/c(=N/c3ccc(Br)cc3F)nc[nH]c2cc1OCC1CCN(C)CC1 [Vandetanib] (10 nM)
Marked response: 97

Exam item: Same for CNC(=O)c1cc(Oc2ccc(NC(=O)Nc3ccc(Cl)c(C(F)(F)F)c3)c(F)c2)ccn1 [Regorafenib] (10000 nM)
Marked response: 97.2

Exam item: Next up: Cc1[nH]c2ccccc2c1CCNCc1ccc(/C=C/C(=O)NO)cc1 [Panobinostat] (100 nM)
Marked response: 28.7

Exam item: Then CC(C)C[C@@H](C(=O)N[C@H](C(=O)OC1CCCC1)c1ccccc1)[C@H](O)C(=O)NO [Tosedostat] (1000 nM) ?
Marked response: 39.9

Exam item: Proceed to COc1cc2ncnc(Nc3ccc(F)c(Cl)c3)c2cc1OCCCN1CCOCC1 [Gefitinib] (100 nM)
Marked response: 83.3

Exam item: What would you report for COc1cc(OC2CCN(C)CC2)ccc1Nc1ncc2c(n1)n(C1CCCC1)c(=O)n2C [AZ 3146] (1000 nM) ?
Marked response: 100

====

Test system: HCC1143
Assay: normalised response (% of control), CellTiter-Glo; higher = more viable cells (100 = DMSO, 0 = benzethonium chloride kill control)
Settings: incubation time: 72 h
readout-type: normalised response (%)
Write it as a number; the unit % goes unstated.

Exam item: // lookup normalised response for CNC(=O)c1ccc(N2C(=S)N(c3ccc(C#N)c(C(F)(F)F)c3)C(=O)C23CCC3)cc1F [RD162] (10 nM)
Marked response: 105

Exam item: Do the same for COc1cc2c(NC3CCN(C(C)C)CC3)nc(N3CCC(F)(F)CC3)nc2cc1OCCCN1CCCC1 [UNC0642] (1000 nM) please
Marked response: 91.2

Exam item: Ok, now CNC(=O)c1ccc(N2C(=S)N(c3ccc(C#N)c(C(F)(F)F)c3)C(=O)C2(C)C)cc1F [Enzalutamide] (1000 nM)
Marked response: 101

Exam item: Consider next the compound Cc1cc(Nc2cc(CN3CCOCC3)c3nc(C)c(Cc4ccc(Cl)cc4F)n3n2)n[nH]1 [Gandotinib] (1000 nM) in the same way.
Marked response: 88.6

Exam item: Quick one: c1ccc2c(CCNc3ccc(Nc4ccncc4)cc3)c[nH]c2c1 [Serdemetan] (10 nM)
Marked response: 93.4

Exam item: Another: N#Cc1ccc(COC[C@H]2O[C@@H](n3c(NCc4ccc(Cl)c(Cl)c4)nc4c(N)ncnc43)[C@H](O)[C@@H]2O)cc1 (1 nM)
Marked response: 108

====

Tested on: CAL-148
Conditions: 72 h
readout-type: EC50, CellTox Green (µM)
Write the answer as a number in µM, unit excluded.

Exam item: Checklist item: EC50, CellTox Green tested on CAL-148, entry CNC(=O)c1cccc(-c2ccc3c(N4CCOC[C@@H]4C)nc(N4CCOC[C@@H]4C)nc3n2)c1 , value?
Marked response: 0.13

Exam item: Now the same for COc1cc(O)c2c(c1)/C=C/C[C@H](O)[C@H](O)C(=O)/C=C\C[C@H](C)OC2=O
Marked response: 0.0758

Exam item: // next record COCC[n+]1c2c(n(Cc3cnccn3)c1C)C(=O)c1ccccc1C2=O
Marked response: 0.0342

Values were extracted from the supplement of paper PMC4862054.
